Test system: Fibroblast
Assay: Multiplex assay against human fibroblast
Type: toxicity, cell-based
Conditions: 48 h, 10 µM, compound concentration 10 uM, replicate 2
Listed here are compounds together with their documented Population Healthy Nuclei (%).
Metric Name: Population Healthy Nuclei (%)

{"Compound": "CN1CCC[C@@H]1CCO[C@](C)(c1ccccc1)c1ccc(Cl)cc1.O=C(O)/C=C/C(=O)O [CLEMASTINE FUMARATE]", "Metric Name": "Population Healthy Nuclei (%)", "Val": 50}
{"Compound": "CN(C)C(=O)/C(C#N)=C/c1ccc(-c2nc3cnc4[nH]ccc4c3n2C2CCCCC2)o1", "Metric Name": "Population Healthy Nuclei (%)", "Val": 57}
{"Compound": "CC[C@H](C)C(=O)O[C@H]1C[C@@H](C)C=C2C=C[C@H](C)[C@H](CC[C@@H]3C[C@@H](O)CC(=O)O3)[C@H]21", "Metric Name": "Population Healthy Nuclei (%)", "Val": 52}
{"Compound": "CCn1c(=O)c(-c2ccc(Cl)cc2Cl)cc2cnc(Nc3ccc(N4CCNCC4)c(F)c3)nc21", "Metric Name": "Population Healthy Nuclei (%)", "Val": 31}
{"Compound": "C[C@@H](NCCCc1cccc(C(F)(F)F)c1)c1cccc2ccccc12.Cl [CINACALCET HYDROCHLORIDE]", "Metric Name": "Population Healthy Nuclei (%)", "Val": 8}
{"Compound": "CCOCCn1cc(C(=O)Nc2ccc(-n3nc(-c4cccnc4)cc3C(F)(F)F)cn2)ccc1=O", "Metric Name": "Population Healthy Nuclei (%)", "Val": 71}
{"Compound": "NC(=O)Nc1cc(-c2cccc(F)c2)sc1C(=O)N[C@H]1CCCNC1", "Metric Name": "Population Healthy Nuclei (%)", "Val": 37}
{"Compound": "O=C1NCN(c2ccccc2)C12CCN(CCCOc1ccc(F)cc1)CC2 [SPIRAMIDE]", "Metric Name": "Population Healthy Nuclei (%)", "Val": 64}

----------
Tested on: HEK-293T
Test: Multiplex assay against HEK293T
Type: toxicity, cell-based
Conditions: human, 48 h, 1 µM, compound concentration 1 uM, replicate 2
Listed here are compounds together with their documented Population Normal (%).
Metric Name: Population Normal (%)

{"Compound": "Cc1c(-c2ccc(O)cc2)n(Cc2ccc(OCCN3CCCCCC3)cc2)c2ccc(O)cc12", "Target Or Test System": "HEK-293T", "Metric Name": "Population Normal (%)", "Units Symbol": "%", "Val": 97}
{"Compound": "CC(C)(O)CNc1ncc(-c2ccnc(Nc3ccnc(Cl)c3)n2)c(CC2CC2)n1", "Target Or Test System": "HEK-293T", "Metric Name": "Population Normal (%)", "Units Symbol": "%", "Val": 94}
{"Compound": "Cn1cc(-c2[nH]c3cc(NC(=O)[C@H](N)C4CCCCC4)cc4c3c2C=NNC4=O)cn1", "Target Or Test System": "HEK-293T", "Metric Name": "Population Normal (%)", "Units Symbol": "%", "Val": 82}
{"Compound": "CNc1nc(NCc2ccc(NS(C)(=O)=O)cc2Cl)cc(-c2ccccn2)n1", "Target Or Test System": "HEK-293T", "Metric Name": "Population Normal (%)", "Units Symbol": "%", "Val": 96}
{"Compound": "C[C@@H](NCCCc1cccc(C(F)(F)F)c1)c1cccc2ccccc12.Cl [CINACALCET HYDROCHLORIDE]", "Target Or Test System": "HEK-293T", "Metric Name": "Population Normal (%)", "Units Symbol": "%", "Val": 94}
{"Compound": "CC[C@H](C)C(=O)O[C@H]1C[C@@H](C)C=C2C=C[C@H](C)[C@H](CC[C@@H]3C[C@@H](O)CC(=O)O3)[C@H]21", "Target Or Test System": "HEK-293T", "Metric Name": "Population Normal (%)", "Units Symbol": "%", "Val": 96}
{"Compound": "CN(C)CC#Cc1ccc(OCCCc2sc(N3CCc4cccc(C(=O)Nc5nc6ccccc6s5)c4C3)nc2C(=O)O)c(F)c1", "Target Or Test System": "HEK-293T", "Metric Name": "Population Normal (%)", "Units Symbol": "%", "Val": 95}
{"Compound": "Cc1cc(C)cc(-c2cnc3cc(Cl)c(-c4cccc(O)c4)cc3c2OCCCN)c1", "Target Or Test System": "HEK-293T", "Metric Name": "Population Normal (%)", "Units Symbol": "%", "Val": 93}
{"Compound": "CN(C)C(=O)/C(C#N)=C/c1ccc(-c2nc3cnc4[nH]ccc4c3n2C2CCCCC2)o1", "Target Or Test System": "HEK-293T", "Metric Name": "Population Normal (%)", "Units Symbol": "%", "Val": 96}
{"Compound": "C=CC(=O)Nc1ccc2ncnc(Nc3ccc(OCc4cccc(F)c4)c(Cl)c3)c2c1.Cc1ccc(S(=O)(=O)O)cc1", "Target Or Test System": "HEK-293T", "Metric Name": "Population Normal (%)", "Units Symbol": "%", "Val": 97}
{"Compound": "c1cn2cc(-c3ccc4cn[nH]c4c3)nc(Nc3ccc(N4CCOCC4)cc3)c2n1", "Target Or Test System": "HEK-293T", "Metric Name": "Population Normal (%)", "Units Symbol": "%", "Val": 97}
{"Compound": "Cc1nc(-c2ccc(-c3ccc(C(=O)N4CCc5cc6c(cc54)C4(CCN(C)CC4)CO6)cc3)c(C)c2)no1", "Target Or Test System": "HEK-293T", "Metric Name": "Population Normal (%)", "Units Symbol": "%", "Val": 95}
{"Compound": "O=C1NCN(c2ccccc2)C12CCN(CCCOc1ccc(F)cc1)CC2 [SPIRAMIDE]", "Target Or Test System": "HEK-293T", "Metric Name": "Population Normal (%)", "Units Symbol": "%", "Val": 97}
{"Compound": "Cc1[nH]c(/C=C2\\C(=O)Nc3ccc(S(=O)(=O)N(C)c4cccc(Cl)c4)cc32)c(C)c1C(=O)N1CCN(C)CC1", "Target Or Test System": "HEK-293T", "Metric Name": "Population Normal (%)", "Units Symbol": "%", "Val": 98}
{"Compound": "CN1CCCC(n2nc(Cc3ccc(Cl)cc3)c3ccccc3c2=O)CC1.Cl (stereo unspecified) [AZELASTINE HYDROCHLORIDE]", "Target Or Test System": "HEK-293T", "Metric Name": "Population Normal (%)", "Units Symbol": "%", "Val": 94}
{"Compound": "CN(C)C(=O)N[C@H]1CC[C@H](CCN2CCN(c3cccc(Cl)c3Cl)CC2)CC1.Cl [CARIPRAZINE HYDROCHLORIDE]", "Target Or Test System": "HEK-293T", "Metric Name": "Population Normal (%)", "Units Symbol": "%", "Val": 97}

----------
System: U2OS
Assay: Multiplex assay against U2OS
Type: toxicity, cell-based
Conditions: human, 48 h, 10 µM, compound concentration 10 uM, replicate 1
Metric Name: Total Cell Count

{"Compound": "Cl.N#Cc1ccc2[nH]cc(CCCCN3CCN(c4ccc5oc(C(N)=O)cc5c4)CC3)c2c1 [VILAZODONE HYDROCHLORIDE]", "Target Or Test System": "U2OS", "Metric Name": "Total Cell Count", "Val": 174}
{"Compound": "Cc1c(-c2ccc(O)cc2)n(Cc2ccc(OCCN3CCCCCC3)cc2)c2ccc(O)cc12 [BAZEDOXIFENE]", "Target Or Test System": "U2OS", "Metric Name": "Total Cell Count", "Val": 177}
{"Compound": "CN1CCN(CCOc2cc(OC3CCOCC3)c3c(Nc4c(Cl)ccc5c4OCO5)ncnc3c2)CC1 [SARACATINIB]", "Target Or Test System": "U2OS", "Metric Name": "Total Cell Count", "Val": 278}
{"Compound": "CN(C)C(=O)/C(C#N)=C/c1ccc(-c2nc3cnc4[nH]ccc4c3n2C2CCCCC2)o1", "Target Or Test System": "U2OS", "Metric Name": "Total Cell Count", "Val": 279}
{"Compound": "c1cn2cc(-c3ccc4cn[nH]c4c3)nc(Nc3ccc(N4CCOCC4)cc3)c2n1 [ENTOSPLETINIB]", "Target Or Test System": "U2OS", "Metric Name": "Total Cell Count", "Val": 232}
{"Compound": "Cn1cc(-c2[nH]c3cc(NC(=O)[C@H](N)C4CCCCC4)cc4c3c2C=NNC4=O)cn1", "Target Or Test System": "U2OS", "Metric Name": "Total Cell Count", "Val": 395}
{"Compound": "OC1(c2ccc(Cl)cc2)CCN(Cc2c[nH]c3ccccc23)CC1", "Target Or Test System": "U2OS", "Metric Name": "Total Cell Count", "Val": 282}
{"Compound": "CN(C)CC#Cc1ccc(OCCCc2sc(N3CCc4cccc(C(=O)Nc5nc6ccccc6s5)c4C3)nc2C(=O)O)c(F)c1 [A-1155463]", "Target Or Test System": "U2OS", "Metric Name": "Total Cell Count", "Val": 246}
